- TARGET_OF_ASSAY: HIV-1 NL4-3 Env on infected cells (HIV-1 group M subtype B, NL4-3 (pNL4-3 …, strain))

- BINDER: "c11461 (antibody, V domains shown) VH: AGHLVESGGKLIRPGGSLSLSCVASGFTFRNAHMTWVRQVPGQGLEWIALMKSHADGSHTDYSPSVKNRCAISRDDSTSSLYLHLYNLQLDDTGIYFCVHLSSPDEWGLGTPVTVYS VL: HIVLTQSPVTLSGSQGDTVALSCRANESLRSHLAWYQQRPGQRPKLLIYEVSRRPPATPPRFSGSGSGTDFTLIIRGLEPEDSAVYYCQQGDFWPFSFGQGTNLEIT"
  binding result: "binds"
- BINDER: "c9368 (antibody, V domains shown) VH: QMQLVQSGAELKKPGSSVKVSCKASGGTVSSESVSWVRQAPGHGLEWMGGIIPMFGATNYAQRFQGRVTITADTSTSTAYMELRGLKFEDTAMYYCAREGDPGDYDSGRGLSNAFDIWGQGTMVSVSS VL: EIVMTQSPGTLSVSPGERATLSCRASQSVSSNLAWYQQKPGQAPRLLIYGASTRATGIPARFIGSGSGTEFTLTISSLQSEDLAIYYCQQYNSWPPQYTFGQGTKLEIK"
  binding result: "binds"
- BINDER: "c11452 (antibody, V domains shown) VH: EVKLVESGGTQVQPGGSLRISCVGSGFRFSSYSFNWVRQAPGKGPEWLTYISASPFGRSKVTYAPSVEGRFIVSRDNDANSLYLQMTGLTRDDTAVYHCARAPYYEGNFQYNYAMDVWGLGTTVIVSS VL: GVVLTQSPGTLSLSPGERATVSCRASQSLSRDSLVWYQQKPGQPPRLLIYGTSNRVPGIPDRFSGGGSGTQFTLTISRLEPEDFAVYYCQNYGLSPLYSFGQGTKLEIK"
  binding result: "binds"
